Biological target: Intestinal-type alkaline phosphatase (Homo sapiens)
Sequence (P09923 whole entry): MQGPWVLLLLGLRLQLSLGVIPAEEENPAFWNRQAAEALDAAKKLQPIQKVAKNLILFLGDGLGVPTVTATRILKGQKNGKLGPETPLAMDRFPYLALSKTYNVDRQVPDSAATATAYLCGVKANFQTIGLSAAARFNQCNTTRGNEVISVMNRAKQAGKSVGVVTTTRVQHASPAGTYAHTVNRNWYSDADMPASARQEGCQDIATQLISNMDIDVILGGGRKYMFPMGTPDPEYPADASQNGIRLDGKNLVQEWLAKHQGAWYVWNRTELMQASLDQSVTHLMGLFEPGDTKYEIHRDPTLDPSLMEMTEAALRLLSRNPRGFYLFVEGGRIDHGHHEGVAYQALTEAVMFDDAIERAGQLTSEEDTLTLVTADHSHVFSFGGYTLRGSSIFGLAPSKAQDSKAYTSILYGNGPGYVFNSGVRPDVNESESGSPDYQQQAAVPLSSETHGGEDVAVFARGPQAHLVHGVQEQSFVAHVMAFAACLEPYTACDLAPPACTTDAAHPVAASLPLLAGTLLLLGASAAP
Assay: inhibition of human intestinal alkaline phosphatase – biochemical, dose response (AID 488876)
Type: functional
Active and inactive are the calls of the source. Cut-off read from the data, not from the text of the source: actives have a measured IC50 and inactives only a lower limit.
Write down the outcome that applies. Available outcomes: Y = active, N = inactive

stdin: Check the results log: what was the call for CCN(C(=O)C(C)N1C(=O)/C(=C/c2ccco2)SC1=S)C1CCS(=O)(=O)C1 (stereo unspecified) ?
stdout: Y

stdin: Check the results log: what was the call for O=C(N/N=C/c1ccc([N+](=O)[O-])o1)c1sc2ccccc2c1Cl ?
stdout: N

stdin: Check the results log: what was the call for COc1ccc(C2CC(c3ccccc3Cl)=NN2c2ccc(S(N)(=O)=O)cc2)cc1 (stereo unspecified) ?
stdout: N

stdin: Check the results log: what was the call for N#Cc1c(SCC(=O)Nc2nncs2)sc2c(O)cc(=O)[nH]c12 ?
stdout: N

stdin: Check the results log: what was the call for O=[N+]([O-])c1c(O)nc(/C=C\c2ccc(O)c(O)c2)nc1O ?
stdout: Y

stdin: Check the results log: what was the call for Cc1ccc(Cl)c2c(C3=NC(=S)NC3=O)c(O)[nH]c12 ?
stdout: N

Value source: ChEMBL document CHEMBL1201862
